Target Or System: Ba/F3 KRASG12C cells (Homo sapiens, UniProt P01116, G12C, cells depend on it)
Sequence (P01116 whole entry G12C): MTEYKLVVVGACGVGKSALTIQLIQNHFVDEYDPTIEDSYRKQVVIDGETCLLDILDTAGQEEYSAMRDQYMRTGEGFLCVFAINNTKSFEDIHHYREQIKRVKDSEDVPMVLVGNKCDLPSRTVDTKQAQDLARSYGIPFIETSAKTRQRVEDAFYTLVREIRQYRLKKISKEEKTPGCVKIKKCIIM
Measurement Notes: Ba/F3 cell model proliferation assay (AlamarBlue, 72 h)
Format: cell-based
Cond: without IL-3, read-out: IC50 Ba/F3 KRASG12C
Listed below: GI50 values for each entry.
Answer with a number only, understood to be in pM.

Some solved entries appear below for comparison.
Record request: GI50 value, item C=C(F)C(=O)N1[C@@H](C)CN(c2cc(-c3noc4c3CCC[C@@]43CCCc4sc(N)c(C#N)c43)nc(O[C@@H](C)[C@@H]3CCCN3C)n2)C[C@@H]1C 1600

Record request: GI50 value, item C=C(F)C(=O)N1[C@@H](C)CN(c2cc(O[C@@H](C)[C@@H]3CCCN3C)nc(-c3onc4c3CCC[C@@]43CCCc4sc(N)c(C#N)c43)n2)C[C@@H]1C 800

Record request: GI50 value, item C=CC(=O)N1[C@@H](C)CN(c2cc(O[C@@H](C)[C@@H]3CCCN3C)nc(-c3noc4c3CCC[C@@]43CCCc4sc(N)c(C#N)c43)n2)C[C@@H]1C 200

Attention now turns to another entry.
Record request: GI50 value, item C=CC(=O)N1[C@@H](C)CN(c2cc(-c3onc4c3CCC[C@@]43CCCc4sc(N)c(C#N)c43)nc(O[C@@H](C)[C@@H]3CCCN3C)n2)C[C@@H]1C 100
